FYI, the data here is from ChEMBL document CHEMBL1201862.

Below, each of the molecules is paired with its reported IC50 value.
Target: Leucine aminopeptidase (Plasmodium falciparum 3D7, UniProt Q8IL11)
Sequence (Q8IL11 whole entry): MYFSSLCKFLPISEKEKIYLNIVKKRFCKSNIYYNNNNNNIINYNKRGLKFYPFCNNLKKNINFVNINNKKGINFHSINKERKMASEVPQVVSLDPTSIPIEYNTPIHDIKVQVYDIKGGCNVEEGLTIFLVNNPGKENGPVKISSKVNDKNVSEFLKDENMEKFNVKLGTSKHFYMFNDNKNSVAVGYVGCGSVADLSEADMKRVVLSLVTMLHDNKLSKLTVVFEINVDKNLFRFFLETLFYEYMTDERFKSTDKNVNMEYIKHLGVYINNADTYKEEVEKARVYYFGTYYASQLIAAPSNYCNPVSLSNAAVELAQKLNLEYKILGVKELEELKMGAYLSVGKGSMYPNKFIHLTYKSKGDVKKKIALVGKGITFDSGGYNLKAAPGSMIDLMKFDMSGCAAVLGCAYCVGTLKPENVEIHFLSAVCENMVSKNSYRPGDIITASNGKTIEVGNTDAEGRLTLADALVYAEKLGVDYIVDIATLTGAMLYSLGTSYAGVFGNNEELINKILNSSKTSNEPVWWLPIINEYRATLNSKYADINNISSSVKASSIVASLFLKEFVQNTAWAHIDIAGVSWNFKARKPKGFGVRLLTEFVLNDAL
Assay: P. falciparum M17LAP inhibitors, primary screen, biochemical, fluorogenic H-Leu-NHMec substrate, 1536-well (AID 1619)
Format: functional
Activity calls are given as the source filed them.

Structure String	IC50
N=C(CSc1nc(-c2ccccc2)c(-c2ccccc2)o1)NO	7.64 µM (active)

Form field: reported IC50 of CSc1nnc(-c2cc(Br)ccc2/N=C/c2c(C)nn(-c3ccccc3)c2O)c(O)n1
24.8 µM (active)

Form field: reported IC50 of CCOC(=O)c1oc2c(O)c(O)ccc2c(=O)c1-c1nncn1-c1ccccc1
6.58 µM (active)

Form field: reported IC50 of CC/N=c1\scc(C)n1/N=C/c1ccc(O)c(O)c1O
82.3 µM (active)

====

Target: Cytochrome P450 2C19 (Homo sapiens, UniProt P33261)
Sequence (P33261 whole entry): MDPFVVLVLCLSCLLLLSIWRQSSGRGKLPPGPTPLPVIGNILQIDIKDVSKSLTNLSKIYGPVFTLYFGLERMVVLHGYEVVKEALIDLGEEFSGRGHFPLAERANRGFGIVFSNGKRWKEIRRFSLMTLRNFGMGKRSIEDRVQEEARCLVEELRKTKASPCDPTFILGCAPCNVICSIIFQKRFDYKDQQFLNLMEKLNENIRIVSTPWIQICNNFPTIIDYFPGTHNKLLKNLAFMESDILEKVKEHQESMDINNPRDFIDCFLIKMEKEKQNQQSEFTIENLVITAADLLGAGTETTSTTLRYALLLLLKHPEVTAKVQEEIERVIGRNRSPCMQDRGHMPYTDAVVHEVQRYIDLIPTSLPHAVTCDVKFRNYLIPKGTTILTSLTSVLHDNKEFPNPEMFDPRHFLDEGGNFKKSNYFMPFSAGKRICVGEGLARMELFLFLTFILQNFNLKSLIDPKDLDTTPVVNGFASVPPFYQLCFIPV
Assay: Cytochrome panel assay with activity outcomes. Panel member name: p450-cyp2c19 Compounds with AC50 equal or less than 10 uM are considered active
Assay type: functional
Conditions: read-out: AC50
Below, each of the molecules is paired with its reported AC50 value.

Molecule	Subject Of Test	AC50
CCCOC(=O)c1c(NC(=O)/C=C/c2cnn(C)c2C)sc(C(=O)OCC)c1C	Cytochrome P450 2C19 (Homo sapiens, UniProt P33261)	10 µM (inconclusive)

Form field: reported AC50 of N=C1c2ccccc2CN1NC(=O)c1ccc(F)cc1
28.2 µM (inconclusive)

Form field: reported AC50 of CC(C)(C)n1nc2c(c1NC(=O)c1ccc(S(=O)(=O)N3CCCCC3)cc1)C[S+]([O-])C2 (stereo not given)
25.1 µM (inconclusive)

Form field: reported AC50 of COc1cccc(Cn2c(=O)cnc3cnc(Oc4ccccc4)nc32)c1
5.01 µM (inconclusive)

Form field: reported AC50 of c1nc(NC2CC2)c2cc(-c3ccoc3)ccc2n1
20 µM (inconclusive)

====

These compounds were tested on UniProtKB P10635; AC50 is the recorded read-out.
Sequence (P10635 whole entry): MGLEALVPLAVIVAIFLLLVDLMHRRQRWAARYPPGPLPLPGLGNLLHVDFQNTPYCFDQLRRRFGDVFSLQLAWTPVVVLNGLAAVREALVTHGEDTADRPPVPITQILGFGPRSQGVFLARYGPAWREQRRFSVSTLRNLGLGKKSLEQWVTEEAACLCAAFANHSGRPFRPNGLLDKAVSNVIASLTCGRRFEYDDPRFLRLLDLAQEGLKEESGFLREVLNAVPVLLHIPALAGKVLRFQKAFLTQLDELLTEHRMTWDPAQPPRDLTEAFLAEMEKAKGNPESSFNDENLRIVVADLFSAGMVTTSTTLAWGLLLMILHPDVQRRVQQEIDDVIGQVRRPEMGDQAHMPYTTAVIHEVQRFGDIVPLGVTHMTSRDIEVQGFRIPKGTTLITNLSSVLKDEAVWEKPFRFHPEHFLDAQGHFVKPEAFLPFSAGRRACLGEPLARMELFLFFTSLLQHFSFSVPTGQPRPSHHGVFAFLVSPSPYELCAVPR

Compound	Quantity Measured	Observed Value
Nc1nc(Cl)cc(N2CCC(c3cc(-c4ccc(Cl)cc4Cl)[nH]n3)CC2)n1	AC50	12.6 µM (inconclusive)

What AC50 appears in the records for this compound with UniProtKB P10635? O=C(CCCCn1c(=S)[nH]c2ccsc2c1=O)NCc1ccco1
39.8 µM (inconclusive)

What AC50 appears in the records for this compound with UniProtKB P10635? N#Cc1cccc(C(c2nnnn2C2CCCC2)N2CCCCCC2)c1 (stereo not given)
11.2 µM (inconclusive)

What AC50 appears in the records for this compound with UniProtKB P10635? O=C(Nc1ccnc(-c2cccnc2)n1)c1ccccc1Cl
11.2 µM (inconclusive)

What AC50 appears in the records for this compound with UniProtKB P10635? O=C(NCCN1CCOCC1)c1ccc2ccccc2c1
15.8 µM (inconclusive)

====

Below, each of the molecules is paired with its reported EC50 value.
Test system: Streptococcus
Assay: GAS UMAA2166 growth inhibition – luminescence, BacTiterGlo, counter-screen for streptokinase expression inhibitor project, dose response (AID 1915);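 further: potency for reduction of bacterial viability or growth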
Format: functional, organism-based
Activity calls are given as the source filed them.

Molecule	EC50
COc1ccc(C(=O)Nc2nnc(-c3ccccc3)o2)cc1OC	> 150 µM (not active)
O=C(Nc1nnc(SCc2c(Cl)cccc2Cl)s1)C1CC(=O)N(c2ccc3c(c2)OCCO3)C1 (centres undefined)	31.8 µM (active)
Cc1nn(Cc2c(Cl)cccc2Cl)c(C)c1NC(=O)c1cn(-c2ccccc2)nc1-c1ccccc1	21.6 µM (active)

What EC50 appears in the records for this molecule with Streptococcus? CCN(CC)c1ccc(/C=N/NC(=O)CCC(=O)NCc2ccccc2)c(O)c1
4.53 µM (active)

====

Experiment: Luminescence Cell-Based Dose Response HTS to Identify Activators of Luciferase Translation or Activity in H4 […] Cells. [Related pubchem assays: 1829 (Project Summary), 1814 (Primary HTS)]
Type: functional
Active and inactive are the calls of the source.
Quantity Measured: EC50

// solved cases for EC50 follow
Compound	EC50
CC(C)OC(=O)CC12CN(C)CC(CC(=O)OC(C)C)(CN(C)C1)C2=O	72.4 µM (active)
COc1ccc(C2=NOC(COC(=O)c3ccc4ccccc4n3)C2)cc1 (configuration not stated)	> 120 µM (not active)

Form field: reported EC50 of CC1CCc2c(nc3ncnn3c2NCCc2ccccc2F)C1 (configuration not stated)
> 120 µM (not active)

Form field: reported EC50 of CC(C)(C)CC(=O)Nc1nnc(-c2cccs2)s1
< 0.1 µM (active)

Form field: reported EC50 of COc1ccc(C2=C/C(=C\c3ccccc3OC(C)=O)C(=O)O2)cc1
90 µM (active)

Form field: reported EC50 of CC1CCCCC12NC(=O)N(CC(=O)NC(=O)Nc1ccc3c(c1)OCCO3)C2=O (configuration not stated)
0.483 µM (active)

Form field: reported EC50 of c1ccc(NC2=Nc3ccccc3CC2)cc1
21.1 µM (active)

====

These compounds were tested on Cytochrome P450 3A4 (Homo sapiens, UniProt P08684); AC50 is the recorded read-out.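 Further: CYP3A4 tested as one member of a cytochrome P450 panel screen.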
Sequence (P08684 whole entry): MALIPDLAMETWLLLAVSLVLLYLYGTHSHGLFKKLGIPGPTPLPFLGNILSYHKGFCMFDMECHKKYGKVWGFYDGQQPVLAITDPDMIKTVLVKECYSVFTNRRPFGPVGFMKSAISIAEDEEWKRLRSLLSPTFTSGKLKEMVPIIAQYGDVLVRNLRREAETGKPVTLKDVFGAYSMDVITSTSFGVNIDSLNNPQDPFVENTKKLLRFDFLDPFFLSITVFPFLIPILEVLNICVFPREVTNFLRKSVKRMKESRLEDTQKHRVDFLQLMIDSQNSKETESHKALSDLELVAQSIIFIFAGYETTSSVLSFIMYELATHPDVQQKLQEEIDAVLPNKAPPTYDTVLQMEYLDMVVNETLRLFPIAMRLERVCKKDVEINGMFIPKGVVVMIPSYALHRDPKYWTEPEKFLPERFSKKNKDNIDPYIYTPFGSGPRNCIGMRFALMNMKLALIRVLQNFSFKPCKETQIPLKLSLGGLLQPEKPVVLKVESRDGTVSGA

// solved cases for AC50 follow
Compound	Observed Value
COc1ccc(-n2c(=O)c(C)nc3cnc(N4CCOCC4)nc32)cc1	31.6 µM (inconclusive)
c1nc(NC2CC2)c2cc(-c3ccoc3)ccc2n1	5.01 µM (inconclusive)
Cc1ccc(C)c(N2CCN(C(=O)c3ccc4nc(-c5ccco5)c(-c5ccco5)nc4c3)CC2)c1	20 µM (inconclusive)
C[C@@H]1/C=C\CC(=O)OC[C@H]2O[C@@H](C=C[C@@H]2O)[C@H](C)/C=C\CC(=O)OC1	5.01 µM (inconclusive)
O=c1c(-c2ccc(Cl)cc2)nc2cncnc2n1Cc1ccccc1	10 µM (inconclusive)
CCc1nnc(SCc2ccc(OC(C)C)cc2)n1N	14.1 µM (inconclusive)
Cc1nn(-c2ccccc2)c2c1C(c1ccc(O)c(O)c1)N1C(=N2)C(Nc2ccccc2)=Nc2ccccc21 (stereo not drawn)	14.1 µM (inconclusive)
COc1cccc(Nc2ncc3nc(-c4ccc(Cl)cc4)c(=O)n(CCC#N)c3n2)c1	2 µM (inconclusive)

What AC50 appears in the records for this compound with Cytochrome P450 3A4 (Homo sapiens, UniProt P08684)? O=c1c2ccccc2nnn1CSc1nnnn1-c1ccccc1
12.6 µM (inconclusive)

What AC50 appears in the records for this compound with Cytochrome P450 3A4 (Homo sapiens, UniProt P08684)? CCOC(=O)c1cccc2c1-c1ccccc1/C2=N/O
28.2 µM (inconclusive)

What AC50 appears in the records for this compound with Cytochrome P450 3A4 (Homo sapiens, UniProt P08684)? COC(=O)N1CCC[C@@]2(CCN(C(=O)Nc3cccc(F)c3)C2)C1
12.6 µM (inconclusive)

What AC50 appears in the records for this compound with Cytochrome P450 3A4 (Homo sapiens, UniProt P08684)? COc1ccc(-n2nc(C(F)(F)F)cc2-c2ccc(Cl)cc2)cc1
39.8 µM (inconclusive)

What AC50 appears in the records for this compound with Cytochrome P450 3A4 (Homo sapiens, UniProt P08684)? Cc1noc(C)c1C(=O)N1CCC2(CCCN(c3ccccn3)C2)CC1
20 µM (inconclusive)

What AC50 appears in the records for this compound with Cytochrome P450 3A4 (Homo sapiens, UniProt P08684)? CC(C)NC(=O)CSc1nnc(C2CC2)n1-c1ccccc1
25.1 µM (inconclusive)

What AC50 appears in the records for this compound with Cytochrome P450 3A4 (Homo sapiens, UniProt P08684)? O=C1[C@H]2O[C@@H]2[C@@H](O)[C@H]2[C@H]1CCn1c(=O)n(Cc3cc4c(cc3Cl)OCO4)c(=O)n12
3.16 µM (inconclusive)

What AC50 appears in the records for this compound with Cytochrome P450 3A4 (Homo sapiens, UniProt P08684)? COc1ccc(Oc2ncc3ncc(=O)n(C)c3n2)cc1
25.1 µM (inconclusive)

What AC50 appears in the records for this compound with Cytochrome P450 3A4 (Homo sapiens, UniProt P08684)? O=c1cc(N2CCC(Cc3ccccc3)CC2)[nH]c(=O)n1C1CCCCC1
3.55 µM (inconclusive)

What AC50 appears in the records for this compound with Cytochrome P450 3A4 (Homo sapiens, UniProt P08684)? C#CCCCO/N=C1/C[C@@H](O)[C@@H](O)[C@@H]2[C@@H]3C(=O)N(CCC(=O)OCC)C(=O)[C@H]3CC[C@H]12
5.01 µM (inconclusive)

====

These molecules were tested on Cytochrome P450 1A2 (Homo sapiens); AC50 is the recorded read-out.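 Further: PubChem cytochrome P450 panel assay, CYP1A2 panel member.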
Sequence (P05177 whole entry): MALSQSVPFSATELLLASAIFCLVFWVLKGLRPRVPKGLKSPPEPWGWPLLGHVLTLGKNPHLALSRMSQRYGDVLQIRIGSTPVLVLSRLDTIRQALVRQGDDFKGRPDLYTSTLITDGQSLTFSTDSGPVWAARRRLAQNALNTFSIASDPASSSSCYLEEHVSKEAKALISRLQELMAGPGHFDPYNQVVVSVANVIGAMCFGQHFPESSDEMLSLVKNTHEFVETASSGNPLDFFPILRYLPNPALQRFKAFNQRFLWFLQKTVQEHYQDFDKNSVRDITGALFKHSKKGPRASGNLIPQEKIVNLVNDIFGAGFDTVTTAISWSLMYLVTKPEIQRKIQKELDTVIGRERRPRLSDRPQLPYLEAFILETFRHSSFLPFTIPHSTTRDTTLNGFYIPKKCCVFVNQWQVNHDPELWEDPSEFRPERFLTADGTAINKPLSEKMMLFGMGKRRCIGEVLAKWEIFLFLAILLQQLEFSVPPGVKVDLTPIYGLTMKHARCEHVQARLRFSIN

// solved cases for AC50 follow
Molecule	AC50
Cc1ccc(C)c(N2CCN(C(=O)c3ccc4nc(-c5ccco5)c(-c5ccco5)nc4c3)CC2)c1	15.8 µM (inconclusive)
COCCn1c(=O)c(-c2cc(F)cc(F)c2)nc2cnc(N3CCOCC3)nc21	12.6 µM (inconclusive)
COc1cccc(Nc2ncc3nc(-c4ccc(Cl)cc4)c(=O)n(CCC#N)c3n2)c1	5.01 µM (inconclusive)
CCC(C)n1c(NC(=O)c2ccccc2)c(C#N)c2nc3ccccc3nc21 (stereo not drawn)	25.1 µM (inconclusive)
CC(Oc1ccccc1)C(=O)Nc1nc2c(s1)C(=O)CC(C)(C)C2 (stereo not drawn)	15.8 µM (inconclusive)
C[C@@H](C(=O)Nc1ccc2ccccc2c1)[C@@H]1C[C@@]1(C)[C@@H](NC(=O)c1cnccn1)c1ccccc1	12.6 µM (inconclusive)

Form field: reported AC50 of COC(=O)c1cc(Br)c(=O)n(CCN2CCCC2)c1
12.6 µM (inconclusive)

Form field: reported AC50 of CC1Cc2ccccc2N1C(=O)CSc1nnnn1C(C)C (stereo not drawn)
15.8 µM (inconclusive)
